assay_system: human FPRL1 (Homo sapiens, UniProt P25090)
Sequence (P25090 whole entry): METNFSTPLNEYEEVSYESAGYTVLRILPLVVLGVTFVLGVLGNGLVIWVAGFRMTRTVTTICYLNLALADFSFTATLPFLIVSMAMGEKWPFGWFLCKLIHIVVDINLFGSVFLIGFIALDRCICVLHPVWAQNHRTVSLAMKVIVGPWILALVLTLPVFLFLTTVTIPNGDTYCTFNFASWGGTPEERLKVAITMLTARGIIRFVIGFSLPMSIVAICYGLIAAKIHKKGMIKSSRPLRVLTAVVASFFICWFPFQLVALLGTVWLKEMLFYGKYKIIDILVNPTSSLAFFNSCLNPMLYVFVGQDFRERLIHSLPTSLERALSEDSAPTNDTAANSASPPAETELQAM
procedure_text: Measurement test of agonist activity on human FPRL1 (calcium mobilization in HEK293 cells transfected with human FPRL1 and Gα15)
condition_notes: Fluo-4 NW, molar concentration giving 50% maximum activation, read-out: Efficacy EC50
Provide the recorded pEC50 for the entries that follow.
Please keep in mind that pEC50 is minus log10 of the molar concentration; only the number is needed.

Q: Param item = COc1cc(F)c([C@@H]2Cn3nnnc3[C@H]2NC(=O)Nc2ccc(F)cc2)c(F)c1 (single isomer, unassigned) [Example 7-4] ; retrieve measured pEC50.
Ans: 9.44

Q: If you can, please state the reported pEC50 value of COc1cc(F)c([C@@H]2CN3CCCN=C3[C@H]2NC(=O)Nc2ccc(F)cc2)c(F)c1 (single isomer, unassigned) [Example 7-6] .
Ans: 9.01

Q: // query pEC50 value for entry COc1ccc([C@@H]2CCNC(=O)C2NC(=O)Nc2ccc(Cl)cc2)cc1 (mixture of isomers) [Example 1-11]
Ans: 9.96

Q: For COc1ccc([C@@H]2CC(=O)N[C@H]2NC(=O)Nc2ccc(F)cc2)cc1 (racemic) [Example 6-1] , what is its reported pEC50?
Ans: 8.25

Q: Which measured pEC50 value corresponds to COc1ccc([C@@H]2Cn3nnnc3[C@H]2NC(=O)Nc2ccc(F)cc2)cc1 (single isomer, unassigned) [Example 7-3] ?
Ans: 9.22

Q: # pEC50 lookup, item COc1cc(F)c([C@@H]2CN3C(=O)CCN=C3[C@H]2NC(=O)Nc2ccc(F)cc2)c(F)c1 (single isomer, unassigned) [Example 9-1]
Ans: 10.52

Q: For COc1cc(F)c([C@@H]2Cn3c(C)nnc3C2NC(=O)Nc2ccc(F)cc2)c(F)c1 (single isomer, unassigned; (-)) [Example 7-1] , what is its reported pEC50?
Ans: 10.30

Q: # pEC50 lookup, item COc1ccc([C@@H]2COC[C@@H]2NC(=O)Nc2ccc(Cl)cc2)cc1 (racemic) [Example 1-1]
Ans: 9.60

Q: So what's the measured pEC50 for this one? COc1ccc(C2COC(=O)N2NC(=O)Nc2ccc(Cl)cc2)cc1 (racemic) [Example 5-4]
Ans: 8.59

###

Would you mind telling me the reported pEC50 of each entry?
assay_system: human FPRL1 (Homo sapiens)
procedure_text: Measurement test of agonist activity on human FPRL1 (calcium mobilization in HEK293 cells transfected with human FPRL1 and Gα15)
condition_notes: Fluo-4 NW, molar concentration giving 50% maximum activation, read-out: Efficacy EC50
Scale explanation: pEC50 corresponds to minus log10 of a concentration expressed in moles per litre.

Q: Suppose we examine the molecule COc1cc(F)c([C@@H]2CN3C(=O)CON=C3[C@H]2NC(=O)Nc2ccc(F)cc2)c(F)c1 (single isomer, unassigned) ; what pEC50 value has been reported?
Ans: 10.52

Q: Which pEC50 value belongs to COc1cc(F)c([C@@H]2COC[C@@H]2NC(=O)Nc2ccc(F)cc2)c(F)c1 (racemic) ?
Ans: 8.42

Q: Could you tell me which pEC50 is on file for COc1ccc([C@@H]2CN3C(=O)CON=C3[C@H]2NC(=O)Nc2ccc(F)cc2)cc1 (relative stereo) ?
Ans: 9.54

Q: Quick check: pEC50 of COc1ccc([C@@H]2COC[C@@H]2NC(=O)Nc2ccc(C#N)cc2)cc1 (racemic) ?
Ans: 8.00

Q: I am curious: what pEC50 value has been reported for COc1ccc([C@@H]2COC[C@@H]2NC(=O)Nc2ccc(Cl)s2)cc1 (racemic) ?
Ans: 8.28

Q: Would you mind telling me what pEC50 value was observed for COc1ccc([C@@H]2COCC2NC(=O)Nc2ccc(F)cc2)cc1 (single isomer, unassigned; (+)) [Example 3-1 Isomer A] ?
Ans: 9.21

Q: Reported pEC50 for COc1ccc([C@@H]2COCC2NC(=O)Nc2ccc(Cl)cc2)cc1 (single isomer, unassigned; (+)) [Example 2-1 Isomer A] : what is it?
Ans: 9.27

Q: Sample COc1cc(F)c([C@@H]2Cn3ccnc3[C@H]2NC(=O)Nc2ccc(F)cc2)c(F)c1 (single isomer, unassigned) — what was its pEC50?
Ans: 9.60

Q: If you can, please state the reported pEC50 value of O=C(Nc1ccc(F)cc1)N[C@@H]1c2nnnn2C[C@H]1c1cc2c(cc1F)OCC2 (single isomer, unassigned) .
Ans: 8.60

Q: Need pEC50 of O=C(Nc1ccc(F)cc1)NC1COC[C@H]1c1ccc(Cl)cc1 (mixture of isomers) , thanks.
Ans: 7.85

Q: Could you tell me which pEC50 is on file for COc1ccc([C@@H]2COC[C@H]2NC(=O)Nc2ccc(Cl)cc2)cc1 (racemic) ?
Ans: 8.64

Q: Value lookup for pEC50; key = COc1ccc([C@@H]2COC[C@@H]2NC(=O)Nc2ccc(F)c(F)c2)cc1 (racemic)
Ans: 7.92

Q: Please look up its pEC50: COc1ccc(C2CS(=O)(=O)CC2NC(=O)Nc2ccc(Cl)cc2)cc1 (racemic)
Ans: 9.54

Q: Param item = COc1cc(F)c([C@@H]2CN3CCON=C3[C@H]2NC(=O)Nc2ccc(F)cc2)c(F)c1 (relative stereo) ; retrieve measured pEC50.
Ans: 10.70
